pIC50: −log10 of the molar value.
What follows is literature data on pIC50 for UniProt P00742.

Worked set:
[[record]]
compound = "O=C(NCc1cccnc1)c1nn(-c2cccc(Cl)c2)c2c1CCN(c1cccc(CN3CCCCC3)c1)C2=O"
tgt = "UniProt P00742"
measured_attribute = "pIC50"
result_value = "< 4.00"

[[record]]
compound = "CN1CCc2ccc(N3CCc4c(C(=O)NS(C)(=O)=O)nn(-c5cccc(Cl)c5)c4C3=O)cc2C1=O"
tgt = "UniProt P00742"
measured_attribute = "pIC50"
result_value = "< 4.40"

[[record]]
compound = "CN1CCC(CNc2ccc(CNc3cncc4[nH]c(Cl)cc34)cn2)CC1"
tgt = "UniProt P00742"
measured_attribute = "pIC50"
result_value = "5.52 to 6.00"

[[record]]
compound = "CCN1CCC(OCc2ccc(CNc3cccc4c(N)nccc34)c(F)c2)CC1"
tgt = "UniProt P00742"
measured_attribute = "pIC50"
result_value = "< 4.70"

[[record]]
compound = "Nc1nccc2c(NCc3ccc(N4CCn5c(nnc5C(F)(F)F)C4)nc3)cccc12"
tgt = "UniProt P00742"
measured_attribute = "pIC50"
result_value = "< 4.40"


## Task Quick check: pIC50 of CN1CCC(COc2ccc(CNc3ccc4c(N)nccc4c3)cn2)CC1 ?
## Result 5.00 to 5.52

## Task And the next one, COCc1cc(CNC(=O)c2nn(-c3cccc(Cl)c3)c3c2CCN(c2ccc4c(c2)CN(CCO)CC4)C3=O)[nH]n1 ?
## Result 4.40 to 5.00

## Task Another: CN1CCc2ccc(N3CCc4c(C(=O)NCC5CCCO5)nn(-c5cccc(Cl)c5)c4C3=O)cc2C1 (stereo not shown)
## Result 5.00 to 5.52

## Task Same thing, different compound: Cc1cnnc(CNC(=O)c2nn(-c3cccc(Cl)c3)c3c2CCN(c2ccc4c(c2)C(=O)N(C)CC4)C3=O)c1
## Result < 4.40

## Task Another compound to look at: Cc1ccncc1CNC(=O)c1nn(-c2cccc(Cl)c2)c2c1CCN(c1ccc3c(c1)CN(CCO)CC31CC1)C2=O
## Result 5.52 to 6.00

## Task Next up: Nc1nccc2c(NCc3ccc(N4CCn5c(nnc5C(F)(F)F)C4)cc3)cccc12
## Result < 4.40

## Task Please do the same for CC(=O)N1CC2(COc3ccn(C)c(=O)c3)CC1(CNc1cccc3c(N)nccc13)C2 as well.
## Result < 4.40

## Task Another: O=C(NCC1CC1)c1nn(-c2cccc(Cl)c2)c2c1CCN(c1ccc3c(c1)C(=O)N(CC1CCOC1)CC3)C2=O (stereo not shown)
## Result < 4.40

---

Reported IC50 against Coagulation factor X (Homo sapiens, UniProt P00742), gathered from multiple publications, appears below.

Below, 3 compounds whose answers are already recorded.
[[record]]
compound = "CCN1CCC(OCc2ccc(CNc3ccc4c(N)nccc4c3)c(F)c2)CC1"
result_value = "3 to 10 µM"

[[record]]
compound = "O=C(NCC1CC1)c1nn(-c2cccc(Cl)c2)c2c1CCN(c1ccc3c(c1)CN(CCO)CC31CC1)C2=O"
result_value = "3 to 10 µM"

[[record]]
compound = "COc1ccc(CNC(=O)c2nn(-c3cccc(Cl)c3)c3c2CCN(c2ccc4c(c2)CN(C)CC4)C3=O)cn1"
result_value = "1 to 3 µM"


## Task Consider the compound shown here: O=C(N[C@H](CO)c1ccccc1)c1nn(-c2cccc(Cl)c2)c2c1CCN(c1cccc(CN3CCCCC3)c1)C2=O What is its recorded IC50?
## Result > 100 µM

## Task Same question for CC(C)N1C[C@H]2C[C@@H]1CN2CCc1ccc(CNc2ccc3c(N)ncc(Cl)c3c2)c(F)c1 please.
## Result > 40 µM

## Task Okay, and Nc1nccc2c(NC[C@H]3C[C@@H](COc4ccn5ccnc5c4)C3)cccc12 ?
## Result > 40 µM

## Task # repeat for CCNC(=O)c1nn(-c2cccc(Cl)c2)c2c1CCN(c1ccc3c(c1)C(=O)N(CC)CCO3)C2=O
## Result 10 to 40 µM

## Task Param item: Nc1nccc2c(NCC34COC(COc5ccn6ccnc6c5)(C3)C4)cccc12
## Result > 40 µM

## Task Try this compound next: Cc1cc(CNC(=O)c2nn(-c3cc(Cl)cc(CN)c3)c3c2CCN(c2ccc4c(c2)C(=O)N(C)CC4)C3=O)nn1C
## Result 10 to 40 µM

## Task Record: O=C(NC1CCOCC1)c1nn(-c2cccc(Cl)c2)c2c1CCN(c1ccc3c(c1)CN(CCO)CC3)C2=O
## Result 10 to 40 µM

## Task And Cc1ccncc1CNC(=O)c1nn(-c2cccc(C(F)(F)F)c2)c2c1CCN(c1ccc3c(c1)CN(CCO)CC3)C2=O ?
## Result > 40 µM

## Task How about Cc1cc(CNC(=O)c2nn(-c3cccc(Cl)c3)c3c2CCN(c2ccc4c(c2)C(=O)N(C)[C@@H](CO)CO4)C3=O)nn1C ?
## Result > 40 µM

---

pIC50: −log10 of the molar value.
Several reports have described pIC50 for UniProt P00742; a selection of those results is presented here.

[[record]]
cpd_smiles = "Nc1ncc(Cl)c2cc(NCc3ccc(CCN4CCOCC4)cc3F)ccc12"
measured_attribute = "pIC50"
result_value = "< 4.40"

[[record]]
cpd_smiles = "Nc1nccc2c(NCC34CC(COc5cnc6cc[nH]c6c5)(C3)C4)cccc12"
measured_attribute = "pIC50"
result_value = "5.52 to 6.00"

[[record]]
cpd_smiles = "O=C(NCc1ccccc1)c1nn(-c2cccc(Cl)c2)c2c1CCN(c1ccc3c(c1)CN(CC1CC1)CC3)C2=O"
measured_attribute = "pIC50"
result_value = "< 4.40"


## Task Find pIC50 (UniProt P00742) for the entry CCN1CCC(COc2ccc(CNc3ccc4c(N)nccc4c3)cn2)CC1
## Result 4.40 to 5.00

## Task Same lookup for CN1CCc2ccc(N3CCc4c(C(=O)NC5CCOCC5)nn(-c5cccc(Cl)c5)c4C3=O)cc2C1 , please.
## Result 5.00 to 5.52

## Task Note, next up: COCCN1CCc2ccc(N3CCc4c(C(=O)NCC5CC5)nn(-c5cccc(Cl)c5)c4C3=O)cc2C1
## Result < 4.00

## Task # repeat for Cc1cc2c(NCC34CC(COc5ccn6ccnc6c5)(C3)C4)ccnc2[nH]1
## Result 5.52 to 6.00

## Task One more compound: Cc1nc2c(C(=O)O)nn(-c3cccc(Cl)c3)c2c(=O)n1-c1ccc2c(c1)C(=O)N(CCO)CC2
## Result 4.40 to 5.00

---

Hi, quick share: literature pIC50 data for Coagulation factor X (Homo sapiens, UniProt P00742), several sources combined.
pIC50: −log10 of the molar value.

Example compounds with recorded pIC50:
[[record]]
cpd_smiles = "Cc1cc(NCc2ccc(N3CCn4c(nnc4C(F)(F)F)C3)nc2)c2cc(Cl)[nH]c2n1"
tgt = "Coagulation factor X (Homo sapiens, UniProt P00742)"
measured_attribute = "pIC50"
result_value = "< 4.40"

[[record]]
cpd_smiles = "Cc1cn2ccnc2cc1OCC12CCOC(CNc3cccc4c(N)nccc34)(C1)C2"
tgt = "Coagulation factor X (Homo sapiens, UniProt P00742)"
measured_attribute = "pIC50"
result_value = "4.40 to 5.00"


## Task Param readout= pIC50; system= Coagulation factor X (Homo sapiens, UniProt P00742); entry= CCN1CCc2ccc(N3CCc4c(C(=O)NCc5cnccc5C)nn(-c5cccc(Cl)c5)c4C3=O)cc2C1 ; returns value.
## Result 5.00 to 5.52

## Task Likewise for Cc1cc(CNC(=O)c2nn(-c3cccc(Cl)c3)c3c2CCN(c2ccc4c(c2)C(=O)N(CCO)CCC4)C3=O)nn1C ?
## Result 5.00 to 5.52

---

A compilation of published pIC50 results with Coagulation factor X (Homo sapiens, UniProt P00742).
pIC50: −log10 of the molar value.

Worked cases, pIC50 given:
[[record]]
compound = "C[C@H](CO)NC(=O)c1nn(-c2cccc(Cl)c2)c2c1CCN(c1ccc3c(c1)C(=O)N(C)CC3)C2=O"
tgt = "Coagulation factor X (Homo sapiens, UniProt P00742)"
result_value = "< 4.40"

[[record]]
compound = "O=C(NCC1CC1)c1nn(-c2cccc(Cl)c2)c2c1CCN(c1cc3c(cc1F)CCN(CCO)C3)C2=O"
tgt = "Coagulation factor X (Homo sapiens, UniProt P00742)"
result_value = "< 4.40"

[[record]]
compound = "CN1CCC(Oc2ccc(CNc3ccc4c(N)nccc4c3)cn2)CC1"
tgt = "Coagulation factor X (Homo sapiens, UniProt P00742)"
result_value = "5.52 to 6.00"

[[record]]
compound = "COc1ccc(CNC(=O)c2nn(-c3cccc(Cl)c3)c3c2CCN(c2ccc4c(c2)CN(CCO)CC4)C3=O)cn1"
tgt = "Coagulation factor X (Homo sapiens, UniProt P00742)"
result_value = "5.00 to 5.52"


## Task Find the measured pIC50: item CN1CCCc2ccc(N3CCc4c(C(=O)NCC5CC5)nn(-c5cccc(Cl)c5)c4C3=O)cc2C1=O , target or system Coagulation factor X (Homo sapiens, UniProt P00742).
## Result 4.40 to 5.00

## Task Subsequent entry: Nc1nccc2c(NCC34CC(COC5CCn6ccnc6C5)(C3)C4)cccc12 (single isomer, unassigned)
## Result 4.40 to 5.00

## Task Would you kindly repeat that for COc1cccnc1CNC(=O)c1nn(-c2cccc(Cl)c2)c2c1CCN(c1cc3c(nn1)CCN(CCO)C3)C2=O ?
## Result 4.40 to 5.00
